# System: SETARIA VIRIDIS, (L) BEAU
# assayOverview: Postemergence herbicidal evaluation, SETVI (Foxtail, Green)
# Assay type: in vivo
# cond: 0.125 kg/ha, rated four to five weeks after treatment
measuredProperty: Herbicide rating (0-9) SETVI

Query string: Find the recorded Herbicide rating (0-9) SETVI belonging to "Cn1c(=O)n(CC(=O)O)c(=O)n(-c2cc(N3C(=O)C4=C(CCCC4)C3=O)c(F)cc2Cl)c1=O" and report it.
Result string: 0.0

Query string: Moving on to the next compound: CC(C)OC(=O)Cn1c(=O)n(C)c(=O)n(-c2cc(N3C(=O)C4C[S+]([O-])CCN4C3=O)c(F)cc2Cl)c1=O (centres unmarked)
Result string: 1.0

Query string: Moving on to the next compound: "CC(C)OC(=O)Cn1c(=O)n(C)c(=O)n(-c2cc(N=c3sc(=O)n4n3CCCC4)c(F)cc2Cl)c1=O"
Result string: 1.0

Query string: Moving on to the next compound: "COC(=O)Cn1c(=O)n(C)c(=O)n(-c2cc(N3C(=O)C4=C(CCCC4)C3=O)c(F)cc2F)c1=O"
Result string: 0.0

Query string: Moving on to the next compound: "C#CCn1c(=O)n(C)c(=O)n(-c2cc(N3C(=O)C4=C(CCCC4)C3=O)c(F)cc2Cl)c1=O"
Result string: 0.0

These entries and their values trace back to patent EP0745599A2.
